- Tested system: human A2A receptors (Homo sapiens (Human))
- Assay details: A2A antagonism in cAMP cell-based assay (LANCE cAMP, HEK293)
- Condition summary: HEK293 cells expressing human A2A receptor
pIC50: −log10 of the molar value.
Quantity measured: pIC50

Check out these entries, answers already filled in.
Molecule: COc1cc(F)cc2c1nc(N)n1nc(C3CC(C)CN(c4cnn(C(C)(C)CO)c4)C3)nc21 (single isomer, unassigned) [Example 165]
Quantity measured: pIC50
Value reported: 9.10
--
Molecule: COc1cc(F)cc2c1nc(N)n1nc(C3CC(C)CN(c4cnn(C(C)C(C)O)c4C)C3)nc21 (single isomer, unassigned) [Example 220]
Quantity measured: pIC50
Value reported: 7.69
--
Molecule: Cc1nn(C(C)C(C)O)cc1N1CC(C)CC(c2nc3c4cc(F)cc(F)c4nc(N)n3n2)C1 (single isomer, unassigned) [Example 215]
Quantity measured: pIC50
Value reported: 9.40
--
Molecule: COc1cc2nc(N)n3nc(C4CCC(C)N(c5cnn(C(C)(C)C(C)O)c5)C4)nc3c2cc1F (single isomer, unassigned) [Example 265]
Quantity measured: pIC50
Value reported: 8.89
--
Molecule: COc1cc2nc(N)n3nc([C@H]4CC[C@@H](C)N(c5cnn([C@H](C)[C@@H](C)O)c5)C4)nc3c2cc1F (single isomer, unassigned)
Quantity measured: pIC50
Value reported: 7.48
--
Molecule: Cc1nn(CC(C)(C)O)cc1N1CC(C)CC(c2nc3c4cc(F)cc(F)c4nc(N)n3n2)C1 (single isomer, unassigned) [Example 167]
Quantity measured: pIC50
Value reported: 9.22
--
Molecule: COc1cc(F)cc2c1nc(N)n1nc(C3CCC(C)N(c4cnn(C(C)(C)C(C)O)c4)C3)nc21 (single isomer, unassigned) [Example 270]
Quantity measured: pIC50
Value reported: 8.28
--
Molecule: COc1cc2nc(N)n3nc(C4CCC(C)N(c5cnn(C(C)(CO)CO)c5)C4)nc3c2cc1F (single isomer, unassigned) [Example 250]
Quantity measured: pIC50
Value reported: 9.15

A: COc1cc(F)cc2c1nc(N)n1nc(C3CC(C)CN(c4cn(C(C)(C)CO)nc4C)C3)nc21 (single isomer, unassigned) [Example 175]
B: CC(O)C(C)n1cc(N2CC(c3nc4c5cc(F)cc(F)c5nc(N)n4n3)CCC2C)cn1 (single isomer, unassigned) [Example 232]
C: COc1cc(F)cc2c1nc(N)n1nc([C@@H]3CCCN(c4cn(C(C)C(C)O)nc4C)C3)nc21 (single isomer, unassigned) [Example 189]
D: COc1cc2nc(N)n3nc([C@@H]4CCCN(c5cnn(C(C)C(C)O)c5)C4)nc3c2cc1F (single isomer, unassigned) [Example 200]
Q: In this exercise, place the 4 molecules in ascending sequence of their recorded pIC50. Could you list the labels in the order requested?
Ans: A, D, B, C

====

Observed IC50 for human A2a adenosine receptor (Homo sapiens (Human)), reported per entry below.
Quantity measured: IC50 (nM)

Check out these entries, answers already filled in.
Molecule: COc1cc2nc(N)n3nc(C4CCC(C)N(c5cnn(CC(C)(C)O)c5C)C4)nc3c2cc1F (stereo not shown)
Value reported: 18.3
--
Molecule: COc1cc2nc(N)n3nc([C@@H]4CCCN(c5cnn(C6CCOCC6)c5C)C4)nc3c2cc1F
Value reported: 0.8
--
Molecule: COc1cc2nc(N)n3nc(C4CN(c5cnn(CC(C)(C)O)c5)CCC4C)nc3c2cc1F (single isomer, unassigned)
Value reported: 0.6

P: COc1cc(Cl)cc2c1nc(N)n1nc(C3CCCN(c4cnn(C)c4)C3)nc21 (single isomer, unassigned)
Q: COc1cc(F)cc2c1nc(N)n1nc([C@@H]3CCCN(c4cnn(C(C)(C)CO)c4)C3)nc21
R: COc1cc(F)cc2c1nc(N)n1nc([C@@H]3CCCN(c4cnn(C)c4)C3)nc21
S: CCn1cc([C@@]2(O)CCCC(c3nc4c5cc(F)c(OC)cc5nc(N)n4n3)C2)cn1 (single isomer, unassigned)
Q: In this exercise, place the 4 molecules in ascending sequence of their recorded IC50. Could you list the labels in the order requested?
Ans: Q, R, S, P

====

- Tested system: human A2B receptors (Homo sapiens (Human))
- Sequence (P29275 whole entry): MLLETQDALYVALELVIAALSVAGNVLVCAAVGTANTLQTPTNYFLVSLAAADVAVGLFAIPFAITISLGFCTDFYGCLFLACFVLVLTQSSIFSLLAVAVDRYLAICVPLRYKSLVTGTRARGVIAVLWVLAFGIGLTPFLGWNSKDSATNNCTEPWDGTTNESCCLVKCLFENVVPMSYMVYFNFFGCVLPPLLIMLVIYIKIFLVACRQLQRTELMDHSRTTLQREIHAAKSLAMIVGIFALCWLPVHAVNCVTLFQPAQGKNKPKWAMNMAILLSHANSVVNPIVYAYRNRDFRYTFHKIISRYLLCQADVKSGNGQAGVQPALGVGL
- Assay details: A2B antagonism in cAMP cell-based assay (LANCE cAMP, HEK293)
- Condition summary: HEK293 cells expressing human A2B receptor
pIC50: −log10 of the molar value.
Quantity measured: pIC50

Check out these entries, answers already filled in.
Molecule: Cc1nn(CC(C)(C)O)cc1N1CCC[C@@H](c2nc3c4cc(F)c(OC(F)F)cc4nc(N)n3n2)C1 [Example 154]
pIC50: 6.01
//
Molecule: CC1CC(c2nc3c4cc(F)cc(F)c4nc(N)n3n2)CN(c2cnn(CC(C)(C)O)c2)C1 (single isomer, unassigned) [Example 164]
pIC50: 7.32

P: Cc1nn(C(C)(C)CO)cc1N1CC(C)CC(c2nc3c4cc(F)cc(F)c4nc(N)n3n2)C1 (single isomer, unassigned) [Example 177]
Q: COc1cc2nc(N)n3nc([C@@H]4CCCN(c5cnn(C(C)(C)CO)c5)C4)nc3c2cc1F [Example 151]
R: COc1cc2nc(N)n3nc([C@H]4CC[C@@H](C)N(c5cnn([C@@H](C)[C@H](C)O)c5)C4)nc3c2cc1F (single isomer, unassigned) [Example 229]
S: COc1cc2nc(N)n3nc([C@H]4C[C@@H](C)CN(c5cnn(CC(C)(C)O)c5)C4)nc3c2cc1F (single isomer, unassigned) [Example 158]
Q: Sort by pIC50, descending. Could you list the labels in the order requested?
Ans: R, S, Q, P

====

- Tested system: human A2B receptors (Homo sapiens (Human))
- Assay details: A2B antagonism in cAMP cell-based assay (LANCE cAMP, HEK293)
- Condition summary: at 10000 nM, HEK293 cells expressing human A2B receptor
Quantity measured: A2B cAMP % Inh. @10000 nM (% Inh.)

Check out these entries, answers already filled in.
Compound: Cc1nn(C(C)C(C)O)cc1N1CC(C)CC(c2nc3c4cc(F)cc(F)c4nc(N)n3n2)C1 (single isomer, unassigned) [Example 212]
Measurement unit: % Inh.
A2B cAMP % Inh. @10000 nM: 27

Compound: COc1cc2nc(N)n3nc(C4CCC(C)N(c5cnn(C(C)C(C)O)c5)C4)nc3c2cc1F (single isomer, unassigned) [Example 239]
Measurement unit: % Inh.
A2B cAMP % Inh. @10000 nM: 10

Compound: COc1cc(F)cc2c1nc(N)n1nc(C3CC(C)CN(c4cnn(C(C)C(C)O)c4C)C3)nc21 (single isomer, unassigned) [Example 220]
Measurement unit: % Inh.
A2B cAMP % Inh. @10000 nM: 30

Compound: COc1cc2nc(N)n3nc([C@H]4C[C@@H](C)CN(c5cn([C@H](C)[C@@H](C)O)nc5C)C4)nc3c2cc1F (single isomer, unassigned) [Example 210]
Measurement unit: % Inh.
A2B cAMP % Inh. @10000 nM: 35

Compound: Cc1c(N2CC(C)CC(c3nc4c5cc(F)cc(F)c5nc(N)n4n3)C2)cnn1C(C)C(C)O (single isomer, unassigned) [Example 219]
Measurement unit: % Inh.
A2B cAMP % Inh. @10000 nM: 27

P: COc1cc2nc(N)n3nc(C4CC(C)CN(c5cnn(C(C)(C)CO)c5)C4)nc3c2cc1F (single isomer, unassigned) [Example 172]
Q: CC1CCC(c2nc3c4cc(F)cc(F)c4nc(N)n3n2)CN1c1cnn(CC(C)(O)CO)c1 (single isomer, unassigned) [Example 257]
Q: Compare the recorded A2B cAMP % Inh. @10000 nM of P and Q ; state which is larger. To answer, give the label that identifies your chosen option.
Ans: Q
(Q: 25 % Inh., P: 14 % Inh.)

====

Observed pIC50 for human A2b adenosine receptor (Homo sapiens (Human)), reported per entry below.
pIC50: −log10 of the molar value.
Quantity measured: pIC50

Compound: COc1cc2nc(N)n3nc([C@@H]4CCCN(c5cnn([C@@H]6CC[C@@]6(C)O)c5)C4)nc3c2cc1F (single isomer, unassigned)
Tested system: human A2b adenosine receptor (Homo sapiens (Human))
Sequence (P29275 whole entry): as above
Value reported: 6.64
//
Compound: Cn1cc(N2CCCC(c3nc4c5cc(F)c(F)cc5nc(N)n4n3)C2)cn1 (single isomer, unassigned)
Tested system: human A2b adenosine receptor (Homo sapiens (Human))
Value reported: 6.41
//
Compound: COc1cc2nc(N)n3nc(C4CN(c5cn(CC(C)(C)O)nc5C)CCS4(=O)=O)nc3c2cc1F (single isomer, unassigned) [Example 143]
Tested system: human A2b adenosine receptor (Homo sapiens (Human))
Value reported: 5.12
//
Compound: COc1cc2nc(N)n3nc([C@@H]4C[C@@H](F)CN(c5cnn(CC(C)(C)O)c5)C4)nc3c2cc1F (single isomer, unassigned)
Tested system: human A2b adenosine receptor (Homo sapiens (Human))
Value reported: 6.39
//
Compound: COc1cc2nc(N)n3nc([C@H]4C[C@@H](C)CN(c5cnn(CC(C)(C)O)c5)C4)nc3c2cc1F (single isomer, unassigned)
Tested system: human A2b adenosine receptor (Homo sapiens (Human))
Value reported: 5.33
//
Compound: COc1cc2nc(N)n3nc([C@@H]4CCCN(c5cn(CS(C)(=O)=O)nc5C)C4)nc3c2cc1F
Tested system: human A2b adenosine receptor (Homo sapiens (Human))
Value reported: 6.33
//
Compound: COc1cc2nc(N)n3nc([C@H]4CC[C@@H](C)N(c5cn(CC6(O)CCC6)nc5C)C4)nc3c2cc1F (single isomer, unassigned)
Tested system: human A2b adenosine receptor (Homo sapiens (Human))
Value reported: 5.72
//
Compound: COc1cc2nc(N)n3nc([C@@H]4CCCN(c5cn(C6CCOCC6)nc5C)C4)nc3c2cc1F
Tested system: human A2b adenosine receptor (Homo sapiens (Human))
Value reported: 6.36

P: COc1cc(F)cc2c1nc(N)n1nc([C@@H]3CCCN(c4cn(CC(C)(C)O)nc4C)C3)nc21
Q: Cn1cc(N2CCCC(c3nc4c5cc(F)ccc5nc(N)n4n3)C2)cn1 (single isomer, unassigned)
Q: Min pIC50? P | Q To answer, give the label that identifies your chosen option.
Ans: Q

A: COc1cc(F)cc2c1nc(N)n1nc([C@@H]3CCCN(c4cnn(C(C)(C)CO)c4)C3)nc21
B: COc1cc2nc(N)n3nc([C@@H]4CCCN(c5cnn(C(C)C(C)(C)O)c5)C4)nc3c2cc1F (single isomer, unassigned)
Q: Compare the recorded pIC50 of A and B ; state which is larger. To answer, give the label that identifies your chosen option.
Ans: A
(A: 8.16, B: 7.14)
